# System: KM12 colon
# method: NCI-60 one-dose screen, 48 h (100 = growth as untreated, 0 = no growth, -100 = all killed)
# assay-conditions: 10 µM
Compounds without any hit were thinned out: in the full panel of roughly 83,000, 20% have a hit.
measured-quantity: growth (%)

compound | measurement-target | unit-spec | result-number
CN(C)c1ccc(/C=N/NC(=O)c2cccc3ccccc23)c(Cl)c1 | KM12 colon | % | 22.7
CC(CN(C)C)Oc1ccccc1NC1=C(Cl)C(=O)C(Nc2ccccc2OC(C)CN(C)C)=C(Cl)C1=O (centres undefined) | KM12 colon | % | -1.19
COc1cc2c3c(n(C4CCN(C)CC4)c(=O)c2cc1OC)-c1cc2c(cc1C3=O)OCO2 | KM12 colon | % | 75.9
CC(=O)Nc1ccc(S(=O)(=O)c2ccnc3cc(Cl)ccc23)cc1 | KM12 colon | % | 90.1
O=C(CN1CCN(C(=O)c2ccccc2)CC1)Nc1ccccc1SCc1ccccc1 | KM12 colon | % | 84.2
COc1ccc(C(=O)c2cc3c(OC)c(OC)c(OC)cc3[nH]2)cc1 | KM12 colon | % | 12.6
O=C(NCCCNS(=O)(=O)c1ccc(Cl)cc1)Nc1ccc(-n2cc(-c3ccncc3)c(-c3ccc(Cl)c(O)c3)n2)cc1 | KM12 colon | % | 28.6
O=C(Nc1ccccc1)Nc1ncnc2c1ncn2-c1ccccc1 | KM12 colon | % | 87.4
O=S(=O)(O)c1cccc(Nc2ccc3ccccc3c2)c1 | KM12 colon | % | 90.6
COc1ccc(/C=c2\sc3n(c2=O)C(c2cc(OC)c(OC)c(OC)c2)C=C(c2ccc(OC)c(OC)c2)N=3)cc1OC (centres undefined) | KM12 colon | % | 95.8
Oc1ccc(-c2[nH]c3ccccc3c2-c2nc3ccccc3o2)cc1 | KM12 colon | % | 21
COc1cc(NC(=O)C2=C(N3CCOCC3)/C(=C/c3ccc(Cl)cc3)CC2)cc(OC)c1OC | KM12 colon | % | 97.3
COc1cc(CNC(=O)C2CSC3(C)c4ccccc4C(=O)N23)cc(OC)c1OC (centres undefined) | KM12 colon | % | 106
COc1cc(C2CC(c3ccc4c(c3)OCO4)=NN2c2ccccc2)cc(OC)c1OC (centres undefined) | KM12 colon | % | 60.9

----------
# System: UACC-62 melanoma
# method: NCI-60 one-dose screen, 48 h (100 = growth as untreated, 0 = no growth, -100 = all killed)
# assay-conditions: 10 µM
Compounds without any hit were thinned out: in the full panel of roughly 83,000, 20% have a hit.
Listed molecules paired with reported growth

molecule | measurement-target | growth / %
CCN(CC)CCNc1ccc(C)c2sc3cc(Cl)ccc3c(=O)c12 | UACC-62 melanoma | -67
COc1cc(-c2nn(-c3cccc(NC(=O)CCN4CCN(Cc5ccccc5)CC4)c3)cc2-c2ccncc2)ccc1Cl | UACC-62 melanoma | 10.7
COc1cc(C2CC(c3cc(Cl)c(C)cc3O)=NN2c2ccc(S(N)(=O)=O)cc2)cc(OC)c1OC (stereo not given) | UACC-62 melanoma | 16.3
COc1ccc(-c2nn(-c3cccc(Cl)c3)cc2-c2cc(-c3ccccc3)[nH]c(=O)c2C#N)cc1 | UACC-62 melanoma | 35
CCOC(=O)C1C(C(=O)OCC)C2C(=O)C3C(C(=O)OCC)C(C(=O)OCC)C3C(=O)C12 (stereo not given) | UACC-62 melanoma | 101

----------
Listed molecules paired with reported growth
# System: HT29 colon
# method: NCI-60 one-dose screen, 48 h (100 = growth as untreated, 0 = no growth, -100 = all killed)
# assay-conditions: 10 µM
Compounds without any hit were thinned out: in the full panel of roughly 83,000, 20% have a hit.

compound-structure | measurement-target | unit-spec | growth
CCNCC(=O)Nc1ccc(C(=O)OCC)cc1 | HT29 colon | % | 90.7
O=C(Nc1cc([N+](=O)[O-])c2[nH]c(=O)c3ccccc3c2c1)C(F)(F)F | HT29 colon | % | 90.4
Nc1nccc(OCCO)n1 | HT29 colon | % | 88.3
CS(=O)(=O)c1nccc(-c2c(-c3ccc(OCCc4ccccc4)cc3)nc3sccn23)n1 | HT29 colon | % | 88.1

----------
# System: UO-31 renal
# method: NCI-60 one-dose screen, 48 h (100 = growth as untreated, 0 = no growth, -100 = all killed)
# assay-conditions: 10 µM
About 83,000 compounds went through this panel and 20% of them were active in at least one assay; those are over-represented in the sample as a whole.
measured-quantity: growth (%)

compound | result-number
O=c1cn[nH]c2ccc(Br)cc12 | 78.9
O=C(Nc1nc(-c2ccccc2)nc2c1sc(=S)n2-c1ccccc1)C(F)(F)F | 81.2
CCOC(=O)CN(c1sc(C)c(C)c1C(=O)OCC)S(=O)(=O)c1ccc(C)cc1 | 80.7
Nc1ccc(-c2cccs2)cc1NC(=O)c1ccc(CCCC(=O)Nc2ccc(C3CC3N)cc2)cc1 (configuration not stated) | 75.8
CN(C)CCOc1cccc(NC2=C(Cl)C(=O)C(Nc3cccc(OCCN(C)C)c3)=C(Cl)C2=O)c1 | -100
IC(I)I | 97.2
CCC(C)[C@H](NC(C)=O)C(=O)N[C@@H](CCCNC(=N)N)C(=O)N[C@@H](CCCCN)C(=O)N[C@@H](CC1CCC(O)CC1)C(=O)NC(C(=O)N[C@@H](CCSC)C(=O)N[C@@H](CCCNC(=N)N)C(=O)N[C@@]1(C)CCC/C=C\CCC[C@@](C)(C(=O)NC(C(=O)N[C@@H](CCC(=O)O)C(=O)N[C@@H](CC(C)C)C(=O)N[C@H](C(=O)N[C@@H](CCC(=O)O)C(N)=O)C(C)C)[C@@H](C)O)NC(=O)[C@H](CCC(N)=O)NC(=O)[C@H](CC(C)C)NC(=O)[C@H](CC(C)C)NC1=O)[C@@H](C)O (some centres not stated) | 106
COc1ccc2nc(-c3ccc(Cl)cc3)cc(-c3nnc(SC/C(=N\O)c4ccccc4)n3-c3ccccc3)c2c1 | 78.2
COc1cc(C2CC(c3cc(Cl)c(C)cc3O)=NN2c2ccc(S(N)(=O)=O)cc2)cc(OC)c1OC (configuration not stated) | 4.12
Cc1cc(C(C#N)c2ccc(Cl)cc2)c(Cl)cc1NC(=O)c1cc(I)cc(I)c1O (configuration not stated) | 79.8
C=C1CCC2(C#N)[C@H]3[C@H](CC[C@@H]2C)[C@@H](C)C[C@@H](CC(C)(C)NC(=O)CN2CCC2=O)[C@H]13 (some centres not stated) | 47.3
CCN(CC)CCCC(Nc1c2ccc(Cl)cc2nc2ccc(OC)cc12)c1ccc(F)cc1 (configuration not stated) | -43.3
CC(=O)Nc1ccc(CC[C@H]2CCC/C=C/[C@@H]3C[C@H](O)C[C@H]3[C@H](O)/C=C/C(=O)O2)cc1 | 6.87
O=C(CCCSc1nc(-c2ccccc2)cc(-c2ccc(Cl)cc2)n1)NO | -26.4
Cc1c2cnccc2c(C)c2c1oc1ccccc12 | 40.4
Cc1ccc(/C=C2/C(=O)N(C)c3ccc(S(=O)(=O)Nc4ccc(C(C)(C)C)cc4)cc32)s1 | 73.4
COc1cc2c(Nc3ccc(-c4ccc(N)cc4)cc3)ncnc2c(OC)c1OC | 22.7
COc1cc2c(cc1NC(=O)C(F)(F)F)-c1ccc(NC(=O)C(F)(F)F)cc1C2 | 102
O=C(CC(CC(=O)c1ccccc1)c1ccccc1O)c1ccccc1 | 78.4
CC(C)(C)OC(=O)N1CCc2c(sc3ncnc(N/N=C/c4cccc5ccccc45)c23)C1 | -8.22
CC(C)[N+]1(C)C2CC[C@@H]1CC(OC(=O)C(CO)c1ccccc1)C2 (some centres not stated) | 90.7
CCOS(=O)(=O)c1c(C(C)C)cc(C(C)C)cc1C(C)C | 92.2

----------
# Test system: MALME-3M melanoma
# method: NCI-60 one-dose screen, 48 h (100 = growth as untreated, 0 = no growth, -100 = all killed)
# assay-conditions: 10 µM
The panel holds about 83,000 compounds, 20% with a hit somewhere; the sample as a whole holds those more often.
Class y: growth at least 40%. Class n: growth below 40%.

molecule | discrete-label
O=C(CN1CCN(C(=O)c2ccccc2)CC1)Nc1ccccc1SCc1ccccc1 | y
COc1ccc2nc3cc(Cl)ccc3c(N)c2c1 | n
COc1ccc(/C(C#N)=C/c2cccc(OC)c2OC)cc1 | y
CC(C)N(CCOc1ccc(-c2nc3sccn3c2-c2ccnc(S(C)(=O)=O)n2)cc1)C(C)C | y
CC(=O)O[C@@]12CO[C@@H]1C[C@H](O)[C@@]1(C)C(=O)[C@H](O)C3=C(C)[C@@H](OC(=O)[C@H](O)[C@@H](NC(=O)OC(C)(C)C)c4ccccc4)C[C@@](O)([C@@H](OC(=O)c4ccccc4)C12)C3(C)C (some centres not stated) | y
C=CCSC(CC)(CC)C(=O)NC | y
COc1cc2nc(SCC(=O)Nc3cc(OC)c(OC)c(OC)c3)n(Cc3ccccc3)c(=O)c2cc1OC | y
N#Cc1c(-c2ccc(Cl)cc2)csc1NC(=O)Nc1ccc(Cl)c(C(F)(F)F)c1 | n
COc1cc2c3c(n(C4CCNCC4)c(=O)c2cc1OC)-c1cc2c(cc1C3=O)OCO2 | n
CC(C)(C)c1ccc(S(=O)(=O)N[C@H]2CC[C@H]3[C@@H]4CCc5cc(OS(=O)(=O)O)ccc5[C@H]4CC[C@]23C)cc1 | y
O=C(NCCNC(=O)c1ccc(F)cc1)Nc1ccc(-n2cc(-c3ccncc3)c(-c3ccc(Cl)c(O)c3)n2)cc1 | n
COc1ccc2nc3cc(Cl)ccc3c(Nc3cc(CN4CCCC4)c(O)c(CN4CCCC4)c3)c2n1 | n
CC[C@@H](C(=O)[C@H](C)[C@H](O)[C@@H](C)[C@H]1O[C@H]([C@@H](CC)C(=O)O)CC[C@H]1C)C1O[C@]2(C=C[C@@H](O)[C@]3(CC[C@@](C)([C@H]4CC[C@](O)(CC)[C@H](C)O4)O3)O2)[C@H](C)C[C@@H]1C (some centres not stated) | n
COc1cc(C(=O)/C(C)=C/c2c[nH]c3ccccc23)cc(OC)c1OC | y
COc1ccc(-c2csc(NC(=O)c3ccc(Cc4n[nH]c(=O)c5cccnc45)cc3)n2)cc1 | y
COc1cc2c(Nc3ccc(-c4ccc(N)cc4)cc3)ncnc2c(OC)c1OC | n
Cc1cc(C(C#N)c2ccc(Cl)cc2)c(Cl)cc1NC(=O)c1cc(I)cc(I)c1O (configuration not stated) | y
Clc1nc2ccc(Br)cc2cc1-c1nc2ccccc2[nH]1 | y
CN(C)CCCN1c2ccccc2CCc2ccc(Cl)cc21 | n
CC1CCCC(C(=O)O)C1C(=O)O (configuration not stated) | y
COc1ccc(C(c2ccc(OCCN(C)C)cc2)c2cc3ccccc3c3ccccc23)cc1 (configuration not stated) | n
C=CCn1c(SCC(=O)Nc2ccc(C(=O)/C=C/c3ccc(Cl)cc3)cc2)nnc1-c1cc(-c2ccccc2)nc2ccccc12 | y
CC(=O)[C@H]1CC[C@]2(C)[C@@H]1CC[C@@H]1[C@@]3(C)CC(CCC#N)(CCC#N)C(=O)C(C)(C)[C@@H]3CC[C@]12C | y
CCC1NC(=O)c2cc(S(N)(=O)=O)c(Cl)cc2N1 (configuration not stated) | y
Cc1ccc(S(=O)(=O)N/N=C2\CCCc3ccccc32)cc1 | y
CCCCN(CCCC)C(=O)[C@H](CC)[C@@H]1CC[C@@H](C)[C@@H]([C@H](C)[C@@H](O)[C@@H](C)C(=O)[C@H](CC)C2O[C@]3(C=C[C@@H](O)[C@]4(CC[C@@](C)([C@H]5CC[C@](O)(CC)[C@H](C)O5)O4)O3)[C@H](C)C[C@@H]2C)O1 (some centres not stated) | n
CNC(=O)c1cc(Oc2ccc3c(c2)sc2nc(-c4ccc(NC(=O)Nc5ccc(Cl)c(C(F)(F)F)c5)cc4)cn23)ccn1 | y
COC(=O)C1OC1c1cc([N+](=O)[O-])ccc1OC (configuration not stated) | y
CCOS(=O)(=O)c1c(C(C)C)cc(C(C)C)cc1C(C)C | y
O=[N+]([O-])c1ccc(/C(=C/c2ccccc2)[n+]2ccccc2)cc1 | y
COc1ccc(/C(C#N)=C/c2ccccc2OC)cc1 | n
